assay.method.text: Cytotoxicity evaluation on RAW 264.7 macrophages
Assay type: cell-based
experimental.context: mouse
reported.metric: CC50 (µM)
The figure you give is taken to be in µM; do not add the unit.

CCCCCCCCCCCCCCCCOP(=O)([O-])OCC[N+](C)(C)C [Miltefosine, reference compound] ... 52.2

Field: next molecule
Input line: Could you share which CC50 value was measured for Cc1nn(Cc2ccc(O)c(C=O)c2)c(=O)[nH]c1=O [Compound 10] ?
Output line: 56.1

---

CC50 values for the compounds below.
assay.method.text: Cytotoxicity, cell growth
Type: cell-based
experimental.context: human, human embryonic lung (HEL) fibroblasts

Nc1ccn(C[C@@H](CO)OCP(=O)(O)O)c(=O)n1 ... > 317 µM

Input line: Which CC50 is reported for this compound? `Nc1nc2c(ncn2COCCO)c(=O)[nH]1`
Output line: > 444 µM

Input line: What do we get for `Nc1nc(O)c2ncn(COC(CO)CO)c2n1` ?
Output line: > 394 µM

---

assay.method.text: Cytotoxicity evaluation on RAW 264.7 macrophages
Type: cell-based
experimental.context: mouse
reported.metric: CC50

Cc1cn(Cc2ccc(O)c(C=O)c2)c(=O)[nH]c1=O ... > 100 µM

Input line: Item `O=Cc1cc(Cn2ccc(=O)[nH]c2=O)ccc1O` has what recorded CC50?
Output line: > 100 µM

Input line: And `O=Cc1cc(Cn2cc(F)c(=O)[nH]c2=O)ccc1O` ?
Output line: > 100 µM
